// provenance: paper PMC9816194

# System: male C57BL/6 J mice
# Protocol: Head-twitch response (HTR), magnetometer coil recording
# Format: in vivo
# Conditions: 10 mg/kg IP, 30 min
Result type: HTR Counts (Mean ± SEM)
Answers are plain numbers.

Example cases with answers are listed next.
Molecule	Study target	HTR Counts (Mean ± SEM)
COc1cc(SCCCF)c(OC)cc1CCN.Cl [Compound 2C-T-28]	male C57BL/6 J mice	27.2
COc1cccc(CSc2cc(OC)c(CCN)cc2OC)c1.Cl [Compound 2C-T-33]	male C57BL/6 J mice	7.8
C=C(C)CSc1cc(OC)c(CCN)cc1OC.Cl [Compound 2C-T-3]	male C57BL/6 J mice	67.8
COc1cc(SC)c(OC)cc1CC(C)N.Cl (stereo not drawn) [ALEPH]	male C57BL/6 J mice	74.0
CCCCSc1cc(OC)c(CCN)cc1OC.Cl [Compound 2C-T-19]	male C57BL/6 J mice	12.0

Let us examine a further case.
Short answer on male C57BL/6 J mice for COc1cc(SCCF)c(OC)cc1CCN.Cl [Compound 2C-T-21] , HTR Counts (Mean ± SEM): 72.6
